Below, IC50 values reported for cGMP-dependent 3',5'-cyclic phosphodiesterase (Homo sapiens) across several publications.

* O=C(Nc1ccccc1Cl)c1ccc(OC(F)F)c(OCC2CC2)c1 | > 100 µM
* Cn1c(Nc2ccc(Oc3nccnc3N3CCC(CO)CC3)cc2)nc2ccccc21 | > 10 µM

Qu. If you can, please state the reported IC50 value of `COC(=O)CCCOc1ccc2nc3[nH]c(=O)[nH]c3cc2c1` .
Ans. > 100 µM

====

Below, pIC50 values reported for cGMP-dependent 3',5'-cyclic phosphodiesterase (Homo sapiens, UniProt O00408) across several publications.
pIC50: −log10 of the molar value.

Qu. Look up pIC50 with cGMP-dependent 3',5'-cyclic phosphodiesterase (Homo sapiens, UniProt O00408) for this molecule: `O=C(CCCOc1ccc2[nH]c3nc(O)nc-3cc2c1)N1CCCCC1`
Sequence (O00408 whole entry): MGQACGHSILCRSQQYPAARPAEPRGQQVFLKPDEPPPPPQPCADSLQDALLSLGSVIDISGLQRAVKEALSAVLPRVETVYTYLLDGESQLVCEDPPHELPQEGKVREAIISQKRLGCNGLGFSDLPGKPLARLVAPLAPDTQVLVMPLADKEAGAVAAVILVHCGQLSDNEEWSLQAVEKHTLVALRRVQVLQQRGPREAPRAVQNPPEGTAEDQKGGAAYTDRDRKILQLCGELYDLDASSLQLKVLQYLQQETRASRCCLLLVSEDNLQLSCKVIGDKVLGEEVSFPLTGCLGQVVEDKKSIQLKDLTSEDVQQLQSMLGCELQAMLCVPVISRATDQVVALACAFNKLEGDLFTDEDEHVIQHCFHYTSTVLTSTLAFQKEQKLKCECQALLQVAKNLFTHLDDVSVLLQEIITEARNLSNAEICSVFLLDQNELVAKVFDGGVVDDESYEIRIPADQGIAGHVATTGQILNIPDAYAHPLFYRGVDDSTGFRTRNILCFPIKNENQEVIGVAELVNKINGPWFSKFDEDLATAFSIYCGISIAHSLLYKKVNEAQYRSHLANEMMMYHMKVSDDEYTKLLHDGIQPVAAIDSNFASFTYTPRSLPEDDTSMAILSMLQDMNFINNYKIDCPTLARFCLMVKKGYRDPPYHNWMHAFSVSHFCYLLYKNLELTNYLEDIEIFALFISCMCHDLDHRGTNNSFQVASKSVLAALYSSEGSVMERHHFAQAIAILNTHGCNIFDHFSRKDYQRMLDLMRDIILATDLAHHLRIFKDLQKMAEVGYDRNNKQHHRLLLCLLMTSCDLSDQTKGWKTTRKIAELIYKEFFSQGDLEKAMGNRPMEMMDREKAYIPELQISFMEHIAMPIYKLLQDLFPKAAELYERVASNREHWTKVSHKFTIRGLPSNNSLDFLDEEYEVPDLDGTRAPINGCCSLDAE
Ans. < 4.00

Qu. Look up pIC50 with cGMP-dependent 3',5'-cyclic phosphodiesterase (Homo sapiens, UniProt O00408) for this molecule: COC(=O)C1Cc2cc(OC)c(OC3CCCC3)cc2CN1C(=O)c1ccc(OC(F)(F)F)cc1 (stereo unspecified)
Ans. < 4.00

Qu. Look up pIC50 with cGMP-dependent 3',5'-cyclic phosphodiesterase (Homo sapiens, UniProt O00408) for this molecule: `NC(=O)CCCOc1ccc2[nH]c3nc(O)nc-3cc2c1`
Ans. < 4.00

Qu. Look up pIC50 with cGMP-dependent 3',5'-cyclic phosphodiesterase (Homo sapiens, UniProt O00408) for this molecule: `CCCc1nc(C)c2c(=O)nc(-c3cc(S(=O)(=O)N4CCN(CC)CC4)ccc3OCC)[nH]n12`
Ans. < 5.00

Qu. Look up pIC50 with cGMP-dependent 3',5'-cyclic phosphodiesterase (Homo sapiens, UniProt O00408) for this molecule: `CCCOCCn1c(=O)c(NCCN2CCOCC2)nc2cnc(-c3ccc(OC)nc3)cc21`
Ans. < 5.70

Qu. Look up pIC50 with cGMP-dependent 3',5'-cyclic phosphodiesterase (Homo sapiens, UniProt O00408) for this molecule: Cc1nc(-c2cnn3c2CN(CC2CCCC2O)CC3)c2c(=O)[nH]cnn12 (single isomer, unassigned; diastereomer 1)
Ans. < 5.70
